Reported glycan array binding signal (z-score) values for the following binders.
Target: Fuc(a1-2)Gal(b1-3)[Fuc(a1-4)]GlcNAc(b1-2)Man(a1-3)[Fuc(a1-2)Gal(b1-3)[Fuc(a1-4)]GlcNAc(b1-2)Man(a1-3)]Man(b1-4)GlcNAc(b1-4)GlcNAc
Experiment: glycan array binding signal (z-score within array); higher = stronger binding
Conditions: glycan notation: IUPAC condensed, linker removed
Shown is part of a subset that was picked to be rich in the strongest signals.
Assay Readout: glycan array binding signal (z-score)

[
  {
    "Binder": "CLEC5A (Homo sapiens), Q9NY25 (protein) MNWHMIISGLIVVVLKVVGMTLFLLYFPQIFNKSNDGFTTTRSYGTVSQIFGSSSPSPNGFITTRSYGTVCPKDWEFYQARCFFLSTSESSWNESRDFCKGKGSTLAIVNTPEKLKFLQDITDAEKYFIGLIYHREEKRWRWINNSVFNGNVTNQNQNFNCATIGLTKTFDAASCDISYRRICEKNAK",
    "Observed Result": 0.282
  },
  {
    "Binder": "Erv46-EDTA (Saccharomyces cerevisiae), P39727 (protein) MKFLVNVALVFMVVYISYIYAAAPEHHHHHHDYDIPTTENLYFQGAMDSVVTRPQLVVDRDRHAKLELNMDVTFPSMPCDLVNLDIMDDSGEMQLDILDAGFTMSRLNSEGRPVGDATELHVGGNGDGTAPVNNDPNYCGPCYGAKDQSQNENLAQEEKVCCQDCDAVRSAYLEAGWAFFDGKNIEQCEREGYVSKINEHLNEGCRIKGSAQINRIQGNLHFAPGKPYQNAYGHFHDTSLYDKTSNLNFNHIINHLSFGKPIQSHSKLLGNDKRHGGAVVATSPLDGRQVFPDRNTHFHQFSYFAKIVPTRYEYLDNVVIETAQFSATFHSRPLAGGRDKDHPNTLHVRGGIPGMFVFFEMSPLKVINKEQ",
    "Observed Result": 0.467
  },
  {
    "Binder": "HPA (Helix pomatia), Q575S3 (protein) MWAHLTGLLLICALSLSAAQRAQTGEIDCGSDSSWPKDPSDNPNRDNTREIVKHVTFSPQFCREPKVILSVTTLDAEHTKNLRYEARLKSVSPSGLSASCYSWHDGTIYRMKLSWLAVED",
    "Observed Result": -0.229
  },
  {
    "Binder": "LTL (Lotus tetragonolobus), P19664 (protein) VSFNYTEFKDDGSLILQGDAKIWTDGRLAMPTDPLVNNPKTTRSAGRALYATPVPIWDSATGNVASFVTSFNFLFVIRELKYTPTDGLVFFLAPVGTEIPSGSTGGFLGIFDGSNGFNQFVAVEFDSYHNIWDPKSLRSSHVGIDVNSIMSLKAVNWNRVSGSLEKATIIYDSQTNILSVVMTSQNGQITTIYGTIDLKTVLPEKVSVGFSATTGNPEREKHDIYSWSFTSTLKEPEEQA",
    "Observed Result": 0.157
  }
]
